Hello, the source for this data is patent US20260008768A1, in case you need it.

Form field: pIC50 (one value per entry).
molecular target: human NLRP3 (Homo sapiens); experiment: Human PBMC NLRP3 Assay (LPS priming, ATP stimulation, cytokine measurement); type: cell-based; parameters: host or cells: human PBMCs (A2); human whole blood from healthy volunteers (A3); settings: Table C; human PBMC, LPS + ATP
Sequence (Q96P20 whole entry): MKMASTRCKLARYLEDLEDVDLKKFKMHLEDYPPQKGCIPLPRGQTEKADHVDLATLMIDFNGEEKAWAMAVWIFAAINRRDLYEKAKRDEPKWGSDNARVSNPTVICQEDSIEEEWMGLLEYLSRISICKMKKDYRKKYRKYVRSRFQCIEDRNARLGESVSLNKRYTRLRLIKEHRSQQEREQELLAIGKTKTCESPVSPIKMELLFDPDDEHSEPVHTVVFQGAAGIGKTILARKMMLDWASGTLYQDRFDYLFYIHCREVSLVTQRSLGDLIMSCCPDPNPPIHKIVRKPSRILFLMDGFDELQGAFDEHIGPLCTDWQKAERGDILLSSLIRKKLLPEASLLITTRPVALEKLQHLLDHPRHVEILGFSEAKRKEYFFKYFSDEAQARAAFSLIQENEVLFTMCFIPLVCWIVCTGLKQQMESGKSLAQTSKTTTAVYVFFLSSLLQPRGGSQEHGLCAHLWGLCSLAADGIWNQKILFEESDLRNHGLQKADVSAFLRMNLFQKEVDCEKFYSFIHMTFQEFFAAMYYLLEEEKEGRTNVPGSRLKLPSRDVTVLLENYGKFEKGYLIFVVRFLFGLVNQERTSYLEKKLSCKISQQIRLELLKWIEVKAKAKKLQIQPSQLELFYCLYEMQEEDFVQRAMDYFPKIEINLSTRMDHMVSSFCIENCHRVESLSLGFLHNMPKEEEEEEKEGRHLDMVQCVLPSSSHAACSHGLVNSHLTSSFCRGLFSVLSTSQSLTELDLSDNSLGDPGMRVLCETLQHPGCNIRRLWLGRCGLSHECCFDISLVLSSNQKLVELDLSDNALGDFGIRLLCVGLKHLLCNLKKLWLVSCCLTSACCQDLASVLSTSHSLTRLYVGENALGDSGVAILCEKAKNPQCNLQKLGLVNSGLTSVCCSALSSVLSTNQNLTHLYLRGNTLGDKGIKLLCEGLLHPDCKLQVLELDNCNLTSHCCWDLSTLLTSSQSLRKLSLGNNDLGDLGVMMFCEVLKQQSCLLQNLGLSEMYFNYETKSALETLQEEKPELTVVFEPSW
Scale: negative log10 of molar concentration, which is what pIC50 denotes.

Look over these answered cases.
Request: Could you share which pIC50 value was measured for C[C@@H]1CCN(c2nnn[nH]2)C[C@H](NC(=O)N(C)c2ccc(OC(F)(F)F)cc2F)C1 (single isomer, unassigned) [24A*] ?
Response: 8.10

Request: Could you share which pIC50 value was measured for C[C@@H]1CCN(c2nnn[nH]2)C[C@H](NC(=O)N(C)c2ccc(Cl)cc2)C1 (single isomer, unassigned) ?
Response: 8.17

Request: Could you share which pIC50 value was measured for C[C@@H]1C[C@@H](NC(=O)N(C)c2ccc(OC(F)F)cc2F)[C@H]2CC[C@@H]1N2c1nnn[nH]1 (single isomer, unassigned) [57A*] ?
Response: 8.51

Continuing:
Request: Could you share which pIC50 value was measured for CN(C(=O)N[C@@H]1CCCN(c2ccccc2)C1)c1ccc(Cl)cc1 [Comparative Example D1, reference compound] ?
Response: 4.41

* * *

molecular target: human NLRP3 (Homo sapiens); experiment: Scintillation Proximity (SPA) NLRP3 Assay, displacement of 3H-MCC950; type: binding; conditions: Table B, activity class; displacement of 3H-MCC950 from human NLRP3
Assay endpoint: IC50

Request: Can you look up IC50 on human NLRP3 (Homo sapiens) for C[C@@H]1CCN(c2nnn[nH]2)C[C@@H](NC(=O)N(C)c2ccc(C(F)(F)F)nn2)C1 (single isomer, unassigned) [33B*] ?
Response: 50 to 100 µM

Continuing:
Request: Can you look up IC50 on human NLRP3 (Homo sapiens) for C[C@@H]1C[C@@H](NC(=O)N(C)c2ccc(OC(F)(F)F)c(OC(F)F)c2)[C@H]2CC[C@@H]1N2c1nnn[nH]1 (single isomer, unassigned) [63A*] ?
Response: < 1 µM

Request: Can you look up IC50 on human NLRP3 (Homo sapiens) for C[C@@H]1CCN(c2nnn[nH]2)C[C@H](NC(=O)N(C)c2ccc(Cl)cc2F)C1 (single isomer, unassigned) [5A*] ?
Response: < 1 µM

Request: Can you look up IC50 on human NLRP3 (Homo sapiens) for C[C@H]1C[C@H](NC(=O)N(C)c2ccc(OC(F)(F)F)c(F)c2F)[C@@H]2CC[C@H]1N2c1nnn[nH]1 (single isomer, unassigned) [59D*] ?
Response: 10 to 50 µM

Request: Can you look up IC50 on human NLRP3 (Homo sapiens) for C[C@@H]1C[C@@H](NC(=O)N(C)c2c(F)cc(OC(F)(F)F)cc2F)[C@H]2CC[C@@H]1N2c1nnn[nH]1 (single isomer, unassigned) [62A*] ?
Response: < 1 µM

Request: Can you look up IC50 on human NLRP3 (Homo sapiens) for C[C@@H]1CCN(c2nnn[nH]2)C[C@@H](NC(=O)N(CC2CC2)c2ccc(OC(F)(F)F)cc2)C1 (single isomer, unassigned) [44B*] ?
Response: 1 to 10 µM

Request: Can you look up IC50 on human NLRP3 (Homo sapiens) for C[C@H]1C[C@@H](NC(=O)N(C)c2ccc(C(F)(F)F)c(F)c2)[C@@H]2CC[C@H]1N2c1nnn[nH]1 (single isomer, unassigned) [49C*] ?
Response: 50 to 100 µM

Request: Can you look up IC50 on human NLRP3 (Homo sapiens) for C[C@@H]1CCN(c2nnn[nH]2)C[C@@H](NC(=O)N(C)c2ccc(C3CC3)c(F)c2)C1 (single isomer, unassigned) [23B*] ?
Response: 1 to 10 µM

* * *

Form field: IC50 (one value per entry).
target: human NLRP3 (Homo sapiens); experiment: Scintillation Proximity (SPA) NLRP3 Assay, displacement of 3H-MCC950; type: binding; details: Table B, activity class; displacement of 3H-MCC950 from human NLRP3

Look over these answered cases.
Request: Could you share which IC50 value was measured for C[C@H]1CCN(c2nnn[nH]2)C[C@@H](NC(=O)N(C)c2ccc(C(F)(F)F)c(F)c2F)C1 (single isomer, unassigned) [21D*] ?
Response: 1 to 10 µM

Request: Could you share which IC50 value was measured for C[C@H]1C[C@H](NC(=O)N(C)c2ccc(OC(F)(F)F)cc2)[C@@H]2CC[C@H]1N2c1nnn[nH]1 (single isomer, unassigned) [45D*] ?
Response: 1 to 10 µM

Request: Could you share which IC50 value was measured for C[C@H]1C[C@H](NC(=O)N(C)c2ccc(OC(F)F)cc2)[C@@H]2CC[C@H]1N2c1nnn[nH]1 (single isomer, unassigned) [42D*] ?
Response: 10 to 50 µM

Request: Could you share which IC50 value was measured for C[C@@H]1CCN(c2nnn[nH]2)C[C@H](NC(=O)N(CC2CC2)c2ccc(OC(F)(F)F)cc2)C1 (single isomer, unassigned) [44A*] ?
Response: < 1 µM

Request: Could you share which IC50 value was measured for C[C@H]1C[C@H](NC(=O)N(C)c2ccc(C(F)F)c(F)c2)[C@@H]2CC[C@H]1N2c1nnn[nH]1 (single isomer, unassigned) [53D*] ?
Response: > 100 µM

Now turn to the next compound.
Request: Could you share which IC50 value was measured for C[C@H]1C[C@@H](NC(=O)N(C)c2ccc3ccnn3c2)CN(c2nnn[nH]2)C1 [Compound 36A] ?
Response: > 100 µM

* * *

molecular target: human NLRP3 (Homo sapiens); assay: Scintillation Proximity (SPA) NLRP3 Assay, displacement of 3H-MCC950; assay type: binding; settings: Table B, activity class; displacement of 3H-MCC950 from human NLRP3
pIC50: −log10 of the molar value.
Assay endpoint: pIC50

Look over these answered cases.
Request: Could you share which pIC50 value was measured for C[C@H]1CCN(c2nnn[nH]2)C[C@H](NC(=O)N(C)c2ccc(C(F)(F)F)c(F)c2F)C1 (single isomer, unassigned) [21C*] ?
Response: < 4.00

Request: Could you share which pIC50 value was measured for C[C@@H]1CCN(c2nnn[nH]2)C[C@H](NC(=O)N(C)c2cnc(C(F)(F)F)cn2)C1 (single isomer, unassigned) [32A*] ?
Response: 4.30 to 5.00

Request: Could you share which pIC50 value was measured for C[C@@H]1C[C@H](NC(=O)N(C)c2ccc(OC(F)F)c(OC(F)F)c2)[C@H]2CC[C@@H]1N2c1nnn[nH]1 (single isomer, unassigned) [64B*] ?
Response: < 4.00

Continuing:
Request: Could you share which pIC50 value was measured for C[C@@H]1CCN(c2nnn[nH]2)C[C@@H](NC(=O)N(C)c2ccc(OC(F)F)c(F)c2)C1 (single isomer, unassigned) [15B*] ?
Response: 5.00 to 6.00

Request: Could you share which pIC50 value was measured for C[C@H]1C[C@@H](NC(=O)N(C)c2ccc(C(F)(F)F)c(F)c2F)[C@@H]2CC[C@H]1N2c1nnn[nH]1 (single isomer, unassigned) [47C*] ?
Response: < 4.00

Request: Could you share which pIC50 value was measured for C[C@@H]1C[C@H](NC(=O)N(C)c2ccc(OC(F)(F)F)c(F)c2F)[C@H]2CC[C@@H]1N2c1nnn[nH]1 (single isomer, unassigned) [59B*] ?
Response: 4.00 to 4.30

* * *

target: human NLRP3 (Homo sapiens); experiment: Human Whole Blood (hWB) NLRP3 Assay (LPS/ATP, IL-1β); format: cell-based; set-up: host or cells: human whole blood from healthy volunteers (A3); details: Table B, activity class
pIC50: −log10 of the molar value.
Assay endpoint: pIC50

Look over these answered cases.
Request: Could you share which pIC50 value was measured for C[C@@H]1CCN(c2nnn[nH]2)C[C@H](NC(=O)N(C)c2ccc(Cl)cc2F)C1 (single isomer, unassigned) ?
Response: > 6.00

Request: Could you share which pIC50 value was measured for C[C@@H]1CCN(c2nnn[nH]2)C[C@H](NC(=O)N(C)c2ccc(C(F)(F)F)c(F)c2F)C1 (single isomer, unassigned) [21A*] ?
Response: > 6.00

Request: Could you share which pIC50 value was measured for C[C@@H]1CCN(c2nnn[nH]2)C[C@H](NC(=O)N(C)c2ccc(Cl)c(F)c2)C1 (single isomer, unassigned) [12A*] ?
Response: 5.52 to 5.70

Request: Could you share which pIC50 value was measured for C[C@@H]1CCN(c2nnn[nH]2)C[C@H](NC(=O)N(C)c2ccc(C(F)(F)F)cc2F)C1 (single isomer, unassigned) [13A*] ?
Response: > 6.00

Request: Could you share which pIC50 value was measured for C[C@@H]1CCN(c2nnn[nH]2)C[C@H](NC(=O)N(C)c2c(F)cc(C3CC3)cc2F)C1 (single isomer, unassigned) [20A*] ?
Response: > 6.00

Now turn to the next molecule.
Request: Could you share which pIC50 value was measured for C[C@@H]1C[C@@H](NC(=O)N(C)c2ccc(OC(F)F)c(F)c2F)[C@H]2CC[C@@H]1N2c1nnn[nH]1 (single isomer, unassigned) [58A*] ?
Response: > 6.00
